- System Tested: T1, Human Siglec-9 mutant M6 (human, UniProt Q9Y336 18-463)
- T1 construct: Expressed on HEK293T cells; also called Mutant 6
- T1 sequence (Q9Y336 other isoform, or with tags, fused parts or gaps mutant): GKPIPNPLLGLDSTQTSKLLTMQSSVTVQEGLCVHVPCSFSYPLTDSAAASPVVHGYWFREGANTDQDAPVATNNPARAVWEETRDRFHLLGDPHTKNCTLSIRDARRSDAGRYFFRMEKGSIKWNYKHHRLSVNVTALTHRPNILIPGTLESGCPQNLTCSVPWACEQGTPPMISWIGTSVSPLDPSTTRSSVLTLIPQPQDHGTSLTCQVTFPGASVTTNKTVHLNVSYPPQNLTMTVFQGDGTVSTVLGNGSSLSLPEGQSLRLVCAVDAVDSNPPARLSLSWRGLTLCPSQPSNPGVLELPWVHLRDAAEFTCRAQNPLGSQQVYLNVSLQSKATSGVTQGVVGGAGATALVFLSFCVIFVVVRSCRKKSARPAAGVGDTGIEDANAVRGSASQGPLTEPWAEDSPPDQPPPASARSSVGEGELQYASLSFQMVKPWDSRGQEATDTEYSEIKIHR
- Measurement Notes: flow cytometry, HEK293T transfectants
Measured Parameter: binding result

Fab1 (Fab of mAb1) (Fab, V domains shown) VH: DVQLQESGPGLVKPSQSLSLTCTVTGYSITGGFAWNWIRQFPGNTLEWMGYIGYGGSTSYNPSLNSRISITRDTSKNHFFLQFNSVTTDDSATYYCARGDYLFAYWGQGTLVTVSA VL: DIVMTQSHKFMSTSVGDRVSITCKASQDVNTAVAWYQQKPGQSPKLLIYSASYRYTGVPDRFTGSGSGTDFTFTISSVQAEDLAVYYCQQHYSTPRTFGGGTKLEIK ... binds
mAb3 (antibody, human IgG1, V domains shown) VH: EVQLLETGPGLVKPSQSLSLTCTVTGYSITGGFAWNWIRQFPGNTLEWMGYIGYGGSTSYNPSLNSRISITRDTSKNHFFLQFNSVTTEDSATYYCARGDYLFAYWGQGTLVTVSA VL: DILMTQSPASLSASVGETVSITCRASGNIHNYLAWYLQRQGKSPQLLVYNAKTLADGVPSRFSGTGSGTQFSLKINSLQPEDFGSYYCQHFWSTPRTFGGGTKLEIK ... binds
Fab.E (Fab of mAbE) (Fab, V domains shown) VH: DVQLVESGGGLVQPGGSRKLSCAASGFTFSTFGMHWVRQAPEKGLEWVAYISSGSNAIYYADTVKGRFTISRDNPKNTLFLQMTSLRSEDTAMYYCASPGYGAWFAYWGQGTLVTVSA VL: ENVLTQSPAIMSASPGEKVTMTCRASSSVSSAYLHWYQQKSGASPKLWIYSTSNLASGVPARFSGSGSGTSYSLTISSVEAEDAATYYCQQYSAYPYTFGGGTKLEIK ... binds
mAb1 (antibody, human IgG1, V domains shown) VH: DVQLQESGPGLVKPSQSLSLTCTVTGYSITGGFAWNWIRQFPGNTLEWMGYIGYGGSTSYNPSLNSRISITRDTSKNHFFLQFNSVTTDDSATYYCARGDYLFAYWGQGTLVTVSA VL: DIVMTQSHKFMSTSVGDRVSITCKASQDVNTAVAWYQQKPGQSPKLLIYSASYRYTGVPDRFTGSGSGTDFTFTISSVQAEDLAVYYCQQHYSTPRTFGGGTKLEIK ... binds
Fab.F (Fab of mAbF) (Fab, V domains shown) VH: QVQLQQSGPEVVRPGVSVKISCKGSGYTFTDYSMHWVKQSHAKSLEWIGVISTYNGNTNYNQKFKGKATMTVDKSSSTAYMELARLTSEDSAIYYCARRGYYGSSSWFGYWGQGTLVTVSA VL: DIVMTQSQKFMSTSVGDRVSVTCKASQNVGTDVAWYQQKPGQSPEALIYSASYRYSGVPDRFTGSGSGADFTLTISNVQSEDLAEYFCQQYNSFPYTFGGGTKLEIK ... binds
mAbB (antibody, human IgG1, V domains shown) VH: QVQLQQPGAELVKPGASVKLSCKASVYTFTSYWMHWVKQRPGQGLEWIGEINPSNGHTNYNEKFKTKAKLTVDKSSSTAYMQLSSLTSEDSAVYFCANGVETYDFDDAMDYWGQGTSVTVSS VL: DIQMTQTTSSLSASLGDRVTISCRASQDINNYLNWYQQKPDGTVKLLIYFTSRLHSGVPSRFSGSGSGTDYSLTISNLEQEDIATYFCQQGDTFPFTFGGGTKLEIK ... binds
